Recorded values, source patent US20260151516A1.

experiment: Biodistribution studies incl. blocking experiments; assay type: in vivo; settings: healthy BALB/c mice, 60 min p.i.
Quantity Measured: Biodistribution Heart (% ID/g)
Record the value in % ID/g, omitting the unit from your answer.

Please report the recorded Biodistribution Heart for CC(=O)N[C@H]1[C@H](OCCOCCOCCn2cc(CNC(=O)CCP(=O)([O-])CN3CCN(CP(=O)([O-])CCC(=O)NCc4cn(CCOCCOCCO[C@@H]5O[C@H](CO)[C@H](O)[C@H](O)[C@H]5NC(C)=O)nn4)CCN(CP(=O)([O-])CCC(=O)NCc4cn(CCOCCOCCO[C@@H]5O[C@H](CO)[C@H](O)[C@H](O)[C@H]5NC(C)=O)nn4)CC3)nn2)O[C@H](CO)[C@H](O)[C@@H]1O.[68Ga+3] [[^68Ga]Ga-TRAP-GalNAc] . 0.82

---

experiment: Biodistribution studies incl. blocking experiments; format: in vivo; settings: healthy BALB/c mice, 60 min p.i.
For each of the compounds below, state its Biodistribution Muscle.

Please report the recorded Biodistribution Muscle for O=C(CCP(=O)([O-])CN1CCN(CP(=O)([O-])CCC(=O)NCc2cn([C@@H]3O[C@H](CO)[C@H](O)[C@H](O)[C@H]3O)nn2)CCN(CP(=O)([O-])CCC(=O)NCc2cn([C@@H]3O[C@H](CO)[C@H](O)[C@H](O)[C@H]3O)nn2)CC1)NCc1cn([C@@H]2O[C@H](CO)[C@H](O)[C@H](O)[C@H]2O)nn1.[68Ga+3] [[^68Ga]Ga-Galacto-TRAP] . 0.35 ± 0.05 % ID/g

Now the same for CC(=O)N[C@H]1[C@H](OCCOCCOCCn2cc(CNC(=O)CCP(=O)([O-])CN3CCN(CP(=O)([O-])CCC(=O)NCc4cn(CCOCCOCCO[C@@H]5O[C@H](CO)[C@H](O)[C@H](O)[C@H]5NC(C)=O)nn4)CCN(CP(=O)([O-])CCC(=O)NCc4cn(CCOCCOCCO[C@@H]5O[C@H](CO)[C@H](O)[C@H](O)[C@H]5NC(C)=O)nn4)CC3)nn2)O[C@H](CO)[C@H](O)[C@@H]1O.[68Ga+3] [[^68Ga]Ga-TRAP-GalNAc] 0.57 ± 0.01 % ID/g

Now the same for O=C(CCP(=O)([O-])CN1CCN(CP(=O)([O-])CCC(=O)NCc2cn(CCOCCOCCO[C@@H]3O[C@H](CO)[C@@H](O)[C@H](O)[C@H]3O)nn2)CCN(CP(=O)([O-])CCC(=O)NCc2cn(CCOCCOCCO[C@@H]3O[C@H](CO)[C@@H](O)[C@H](O)[C@H]3O)nn2)CC1)NCc1cn(CCOCCOCCO[C@@H]2O[C@H](CO)[C@@H](O)[C@H](O)[C@H]2O)nn1.[68Ga+3] [[^68Ga]Ga-TRAP-Gluco, reference compound] 0.05 ± 0.01 % ID/g

Now the same for O=C(CCP(=O)([O-])CN1CCN(CP(=O)([O-])CCC(=O)NCc2cn(CCOCCOCCO[C@@H]3O[C@H](CO)[C@H](O)[C@H](O)[C@H]3O)nn2)CCN(CP(=O)([O-])CCC(=O)NCc2cn(CCOCCOCCO[C@@H]3O[C@H](CO)[C@H](O)[C@H](O)[C@H]3O)nn2)CC1)NCc1cn(CCOCCOCCO[C@@H]2O[C@H](CO)[C@H](O)[C@H](O)[C@H]2O)nn1.[68Ga+3] [[^68Ga]Ga-TRAP-Galactan] 0.15 ± 0.03 % ID/g
